# measurement notes: Oral MDZ (1.5 mg p.o.) plasma pharmacokinetics (MDZ and 1′-OH-MDZ) alone and after repeated inhibitor administration
# reported conditions: human, in vivo, po, 1.5 mg, MDZ AUClast, MDZ alone, MDZ 1.5 mg p.o.; APZ arm (Table S1); geometric mean (90% CI)

{"compound": "Cc1ncc2n1-c1ccc(Cl)cc1C(c1ccccc1F)=NC2 [MDZ, midazolam]", "AUC(0-t)": "10.4 ng·h/mL"}

====

# measurement notes: Intravenous MDZ (1.0 mg i.v.) plasma pharmacokinetics (MDZ and 1′-OH-MDZ) alone and after repeated inhibitor administration
# reported conditions: human, in vivo, iv, 1 mg, MDZ CL, MDZ alone, MDZ 1 mg i.v.; ITZ arm (Table S3); geometric mean (90% CI)

{"molecule": "Cc1ncc2n1-c1ccc(Cl)cc1C(c1ccccc1F)=NC2 [MDZ, midazolam]", "clearance (mL/min)": 1230}
